B1: unnamed (parent)
chain 1: NNELSPVALRQMSCAAGTTQTACTDDNALAYYNTTKGGRFVLALLSDLQDLKWARFPKSDGTGTIYTELEPPCRFVTDTPKGPKVKYLYFIKGLNNLNRGMVLGSLAATVRLQ
chain 2: AEGIDIGEMPSYDLVL

Variants of: B1
Test: fluorescence polarisation saturation
Conditions: with partner chain of the complex shown
Attribute Measured: pKd
Give bare numbers, as −log10 of the molar value.

Request: Can you share its pKd? I mean this variant: chain 1 G100N G104D
Response: 4.70
